- experimental_target: soluble guanylate cyclase (sGC) (Homo sapiens (Human), UniProt Q02108+Q02153)
- Sequence (Q02153 whole entry): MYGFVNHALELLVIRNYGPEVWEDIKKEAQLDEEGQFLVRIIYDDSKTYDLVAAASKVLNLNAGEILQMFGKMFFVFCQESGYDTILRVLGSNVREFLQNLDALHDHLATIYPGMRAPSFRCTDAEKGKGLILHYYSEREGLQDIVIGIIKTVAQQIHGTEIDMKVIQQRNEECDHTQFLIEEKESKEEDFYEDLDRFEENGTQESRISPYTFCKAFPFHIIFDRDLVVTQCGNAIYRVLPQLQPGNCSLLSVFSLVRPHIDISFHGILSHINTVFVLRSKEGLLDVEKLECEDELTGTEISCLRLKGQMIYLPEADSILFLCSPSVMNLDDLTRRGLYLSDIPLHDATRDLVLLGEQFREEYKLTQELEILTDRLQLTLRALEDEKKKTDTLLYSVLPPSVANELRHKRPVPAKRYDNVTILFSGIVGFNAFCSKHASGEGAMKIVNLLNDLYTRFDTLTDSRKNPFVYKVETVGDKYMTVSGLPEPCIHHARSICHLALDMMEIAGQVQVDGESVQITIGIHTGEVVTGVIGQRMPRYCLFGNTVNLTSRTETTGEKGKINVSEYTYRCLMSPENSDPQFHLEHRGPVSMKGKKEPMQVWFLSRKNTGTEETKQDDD
- Sequence (Q02108 whole entry): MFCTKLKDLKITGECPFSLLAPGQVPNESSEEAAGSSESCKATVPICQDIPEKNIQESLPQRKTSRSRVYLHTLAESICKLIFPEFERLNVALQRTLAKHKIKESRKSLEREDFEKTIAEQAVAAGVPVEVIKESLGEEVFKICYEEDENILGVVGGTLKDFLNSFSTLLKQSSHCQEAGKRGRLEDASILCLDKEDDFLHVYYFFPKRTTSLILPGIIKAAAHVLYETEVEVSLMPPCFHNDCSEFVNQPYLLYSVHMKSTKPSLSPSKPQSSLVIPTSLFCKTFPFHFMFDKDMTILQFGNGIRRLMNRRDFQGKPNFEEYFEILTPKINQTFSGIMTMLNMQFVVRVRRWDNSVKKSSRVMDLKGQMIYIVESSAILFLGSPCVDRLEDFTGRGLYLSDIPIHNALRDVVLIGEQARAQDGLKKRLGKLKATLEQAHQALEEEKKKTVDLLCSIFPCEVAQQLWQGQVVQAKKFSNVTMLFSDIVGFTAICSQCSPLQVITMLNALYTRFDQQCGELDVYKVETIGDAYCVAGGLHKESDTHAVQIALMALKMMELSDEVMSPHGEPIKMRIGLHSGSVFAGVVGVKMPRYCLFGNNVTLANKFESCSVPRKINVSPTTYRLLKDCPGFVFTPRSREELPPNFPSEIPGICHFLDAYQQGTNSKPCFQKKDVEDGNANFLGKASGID
- assay_notes: sGC-HEK-cGMP assay run with SNP incubation (HEK WC assay)
- Assay type: cell-based
- condition_set: read-out: HEK WC Assay (% Emax at 30 μM with 10 uM SNP)
property_name: Emax

Examples from the recorded data:
compound	Emax
Oc1nc(-c2cc(-c3ncco3)n(Cc3ccccc3F)n2)ncc1F [Compound I-197]	40 to 60%
Cc1cccc(C(=O)Nc2cnc(-c3cc(-c4ccon4)n(Cc4ccccc4F)n3)nc2N)c1 [Compound I-183]	80 to 100%

Dear colleague, could you please provide Emax for the compounds listed below?
1. CC(C)=CC(=O)Nc1cnc(-c2cc(-c3ccon3)n(Cc3ccccc3F)n2)nc1N [Compound I-240]
2. O=[N+]([O-])c1c(O)nc(-c2cc(-c3ccon3)n(Cc3ccccc3F)n2)nc1O [Compound I-282]
3. Fc1ccccc1Cn1nc(-c2ccccn2)cc1-c1cncs1 [Compound I-311]
4. Nc1nc(-c2cc(-c3ccon3)n(Cc3ccccc3F)n2)ncc1NC(=O)C(F)(F)c1ccccc1 [Compound I-244]
5. Nc1nc(-c2cc(-c3ccon3)n(Cc3ccccc3F)n2)ncc1NC(=O)CCCCl [Compound I-167]
6. Nc1ccnc(-c2cc(-c3cnco3)n(Cc3ccccc3F)n2)n1 [Compound I-296]
7. O=S(=O)(c1cc(Cl)ccc1Cl)c1cnc(-c2cc(-c3ccon3)n(Cc3ccccc3F)n2)nc1O [Compound I-242]

A.
1: 60 to 80%; 2: 0 to 10%; 3: 0 to 10%; 4: 40 to 60%; 5: 100 to 120%; 6: 60 to 80%; 7: 20 to 40%

Need Emax for each of these compounds.
1. CNc1cnc(-c2cc(-c3ccon3)n(Cc3ccccc3F)n2)nc1N [Compound I-143]
2. NCC(=O)Nc1cnc(-c2cc(-c3ccon3)n(Cc3ccccc3F)n2)nc1N [Compound I-213]

A.
40 to 60%
20 to 40%

---

- experimental_target: soluble guanylate cyclase (sGC) (Homo sapiens (Human), UniProt Q02108+Q02153)
- assay_notes: sGC-HEK-cGMP assay run with SNP incubation (HEK WC assay)
- Format: cell-based
- condition_set: read-out: HEK WC Assay (% Emax at 30 μM/with 10 uM SNP)
For each entry below, report its Emax at 30 µM value.

item_smiles	Emax at 30 µM
Nc1nc(-c2cc(-c3ccon3)n(Cc3ccccc3F)n2)ncc1-c1ccccn1	40 to 60%
C=CCOC1(c2cnc(-c3cc(-c4ccon4)n(Cc4ccccc4F)n3)nc2N)CC1	40 to 60%

Q. Suppose we examine the compound Nc1nc(-c2cc(-c3ccon3)n(Cc3ccccc3F)n2)ncc1NC(=O)c1ccccc1 ; what Emax at 30 µM value has been reported?
A. 100 to 120%

---

I'd be grateful if you could share measured Emax at 30 µM for these entries.
- experimental_target: soluble guanylate cyclase (sGC) (Homo sapiens (Human), UniProt Q02108+Q02153)
- assay_notes: sGC-HEK-cGMP assay run with SNP incubation (HEK WC assay)
- Format: cell-based
- condition_set: read-out: HEK WC Assay (% Emax at 30 uM/with 10 uM SNP)

Worked cases, Emax at 30 µM given:
item_smiles	experimental_target	Emax at 30 µM
Fc1ccccc1Cn1nc(-c2ccccn2)cc1-c1ccncc1	soluble guanylate cyclase (sGC) (Homo sapiens (Human), UniProt Q02108+Q02153)	0 to 10%
N#Cc1c(-c2ccccn2)nn(Cc2ccccc2F)c1-c1ccccn1	soluble guanylate cyclase (sGC) (Homo sapiens (Human), UniProt Q02108+Q02153)	0 to 10%
Cc1ccc(-c2cc(-c3ccccn3)n(Cc3ccccc3F)n2)nc1	soluble guanylate cyclase (sGC) (Homo sapiens (Human), UniProt Q02108+Q02153)	0 to 10%

Batch request: Emax at 30 µM for each of the following compounds.
1. Nc1ccnc(-c2cc(-c3ccccn3)n(Cc3ccccc3F)n2)n1
2. Fc1ccccc1Cn1nc(-c2ccccn2)c(Br)c1-c1ccccn1
3. Cc1ccc(-c2cc(-c3ccccn3)nn2Cc2ccccc2F)nc1
4. Fc1ccccc1Cn1nc(-c2ccccn2)cc1-c1ccncn1
5. Fc1ccccc1Cn1nc(-c2ccccn2)c(Cl)c1-c1ccccn1

A.
10 to 20%
0 to 10%
0 to 10%
10 to 20%
0 to 10%

Please report Emax at 30 µM for every entry that follows.
1. Cc1cccc(-c2cc(-c3ccccn3)nn2Cc2ccccc2F)c1
2. Fc1ccccc1Cn1nc(-c2ncccn2)cc1-c1cnc2ccoc2c1
3. Fc1ccccc1Cn1nc(-c2ncccn2)cc1-c1cccs1

A.
1. 0 to 10%
2. 0 to 10%
3. 20 to 40%

Q. Request body: readout Emax at 30 µM, system soluble guanylate cyclase (sGC) (Homo sapiens (Human), UniProt Q02108+Q02153), query Fc1ccccc1Cn1nc(-c2ccccn2)cc1-c1cccs1 . Return the value.
A. 10 to 20%

Measured values drawn from patent US10189809B2 for this set.
